B1: library; a variant is named by its letters at N, in order (parent)
chain: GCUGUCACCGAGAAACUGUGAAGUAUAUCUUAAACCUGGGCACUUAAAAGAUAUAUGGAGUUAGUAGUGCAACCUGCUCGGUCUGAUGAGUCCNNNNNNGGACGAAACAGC

# Variants of: B1
# protocol: FACS-Seq fitted mean relative fluorescence mCherry/BFP with ligand (log10 relative fluorescence); HEK293T; ligand: cyclic di-GMP (c-di-GMP-II aptamer); ligand concentration (+) FACS-Seq: 1 mM; higher = higher reporter protein expression
# assay context: ligand present: yes
assay endpoint: FACS-Seq fitted mean (log10)

# count of solved cases: 5
residue sequence	FACS-Seq fitted mean (log10)
GCUGUCACCGAGAAACUGUGAAGUAUAUCUUAAACCUGGGCACUUAAAAGAUAUAUGGAGUUAGUAGUGCAACCUGCUCGGUCUGAUGAGUCCCCGAAAGGACGAAACAGC [CCGAAA]	-0.282
GCUGUCACCGAGAAACUGUGAAGUAUAUCUUAAACCUGGGCACUUAAAAGAUAUAUGGAGUUAGUAGUGCAACCUGCUCGGUCUGAUGAGUCCGUAUAGGGACGAAACAGC [GUAUAG]	-1.05
GCUGUCACCGAGAAACUGUGAAGUAUAUCUUAAACCUGGGCACUUAAAAGAUAUAUGGAGUUAGUAGUGCAACCUGCUCGGUCUGAUGAGUCCAACAUCGGACGAAACAGC [AACAUC]	0.0469
GCUGUCACCGAGAAACUGUGAAGUAUAUCUUAAACCUGGGCACUUAAAAGAUAUAUGGAGUUAGUAGUGCAACCUGCUCGGUCUGAUGAGUCCCGAGCGGGACGAAACAGC [CGAGCG]	-0.547
GCUGUCACCGAGAAACUGUGAAGUAUAUCUUAAACCUGGGCACUUAAAAGAUAUAUGGAGUUAGUAGUGCAACCUGCUCGGUCUGAUGAGUCCGUGAGAGGACGAAACAGC [GUGAGA]	-0.164

stdin: Could you tell me which FACS-Seq fitted mean (log10) is on file for GCUGUCACCGAGAAACUGUGAAGUAUAUCUUAAACCUGGGCACUUAAAAGAUAUAUGGAGUUAGUAGUGCAACCUGCUCGGUCUGAUGAGUCCCUUCUAGGACGAAACAGC [CUUCUA] ?
stdout: -0.312

stdin: Subsequent entry: GCUGUCACCGAGAAACUGUGAAGUAUAUCUUAAACCUGGGCACUUAAAAGAUAUAUGGAGUUAGUAGUGCAACCUGCUCGGUCUGAUGAGUCCGACACUGGACGAAACAGC [GACACU]
stdout: -0.141

stdin: Subsequent entry: GCUGUCACCGAGAAACUGUGAAGUAUAUCUUAAACCUGGGCACUUAAAAGAUAUAUGGAGUUAGUAGUGCAACCUGCUCGGUCUGAUGAGUCCUACGGAGGACGAAACAGC [UACGGA]
stdout: -0.994

stdin: Subsequent entry: GCUGUCACCGAGAAACUGUGAAGUAUAUCUUAAACCUGGGCACUUAAAAGAUAUAUGGAGUUAGUAGUGCAACCUGCUCGGUCUGAUGAGUCCUCAUUAGGACGAAACAGC [UCAUUA]
stdout: -0.732

stdin: Subsequent entry: GCUGUCACCGAGAAACUGUGAAGUAUAUCUUAAACCUGGGCACUUAAAAGAUAUAUGGAGUUAGUAGUGCAACCUGCUCGGUCUGAUGAGUCCGCGAAUGGACGAAACAGC [GCGAAU]
stdout: -0.149

stdin: Subsequent entry: GCUGUCACCGAGAAACUGUGAAGUAUAUCUUAAACCUGGGCACUUAAAAGAUAUAUGGAGUUAGUAGUGCAACCUGCUCGGUCUGAUGAGUCCCACAUUGGACGAAACAGC [CACAUU]
stdout: -0.0216

stdin: Subsequent entry: GCUGUCACCGAGAAACUGUGAAGUAUAUCUUAAACCUGGGCACUUAAAAGAUAUAUGGAGUUAGUAGUGCAACCUGCUCGGUCUGAUGAGUCCACAAUGGGACGAAACAGC [ACAAUG]
stdout: -0.0705
